# measured.on: monomeric α-syn (Homo sapiens, UniProt P37840)
# Construct: prevent aggregation of full-length α-syn in vitro; made in house; host or cells: Escherichia coli BL21 (DE3) gold
# test.method.notes: SPR binding to immobilized α-syn monomers
# assay.conditions: Biacore T200, CM5 chip amine coupling, inhibitor 0.5–500 μM, 30 μl/min, PBS pH 7.4, 25°C, steady-state, 1:1 binding model, mean ± SD, performed thrice, read-out: dissociation constant Kd, α-syn monomer
Where no end group is shown, it is not given here.
endpoint.name: pKd
The quantity pKd is defined as the negative base-10 logarithm of the molar concentration.

Value lookup for pKd; key = GAVVWGVTAVGRKKRRQRRRPQ [S61]
4.20
